- assay.info: HUVEC growth inhibition – cell-based, human, primary screen (AID 575);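 also: 100% = median of untreated cell wells with 0.1% DMSO on each plate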
- test.parameters: HUVEC proliferation, CellTiter-Glo luminescence, 72 h; at 10 µM; stronger effect = lower value
observation.type: viability (%)
Answers are plain numbers, in %.

Take a look at these entries with their results.
compound=CC(C)NC(=O)c1ccc2c(c1)nnn2C observed=87.6
compound="CCc1ccc(C2CC(c3cccc(OC)c3)n3nc(N)nc3N2)cc1 (centres undefined)" observed=113
compound=Cc1ccccc1Cn1ccc(NC(=O)c2onc(C)c2Cl)n1 observed=93.6
compound=Cc1cc(C)n(-c2ccc(N3CCOCC3)nn2)n1 observed=98.1
compound=CCOC(=O)Cn1nc(-c2ccc(Cl)cc2)cc1N observed=91.8
compound=COc1cccc2cc(C(=O)OC3CCN(C)CC3)c(=O)oc12 observed=94.7
compound=COc1ccccc1Oc1ccc(S(=O)(=O)N2CCOCC2)cc1S(=O)(=O)N1CCOCC1 observed=101
compound=Cc1cn2c(-c3ccc(Cl)cc3)nnc2s1 observed=74.7

Batch lookup, viability per entry.
1. CCCNc1nc(N2CCOCC2)nc(N2CCOCC2)n1
2. COc1ccc(C2CC(c3cccc(C)c3)n3ncnc3N2)cc1 (centres undefined)
3. CC1CCCN(C(=O)c2cc3c(-c4ccc(Cl)cc4)nn(C)c3s2)C1 (centres undefined)
4. CCN(CC)C(=O)COc1ccc2oc(C)c(C(=O)OC(C)C)c2c1
5. CCCCOc1ccc(-c2ncc(Cl)cn2)cc1
6. O=C(c1ccco1)N1CCN(C2=NS(=O)(=O)c3ccccc32)CC1

[reply]
[109, 88.8, 77.4, 91.4, 119, 99.1]

Hi, could you look up viability for each item in my list?
1. Cc1ccc(C(C)C)c(OCCCN2CC(C)OC(C)C2)c1 (centres undefined)
2. Cc1nc2ccc(S(=O)(=O)NC(C(=O)Nc3nccs3)C(C)C)cc2s1 (centres undefined)
3. CCOC(=O)c1ccc(-n2c(C)nc3c(cnn3-c3ccccc3C)c2=O)cc1
4. O=C(CCn1[nH]c(=O)c2ccccc2c1=O)NCCO
5. O=C(c1ccc2nc(N3CCCCC3)sc2c1)N1CCN(c2ccccn2)CC1

[reply]
1: 101; 2: 91.6; 3: 117; 4: 118; 5: 68.1

For each entry beneath this line, provide reported viability.
1. O=C(NCCc1c[nH]c2ccccc12)c1cnc2n(c1=O)CCS2
2. CC1(C)CC2CC(C)(CN2S(=O)(=O)c2ccc(N)cc2)C1 (centres undefined)
3. Cc1ccc(N2C(=O)c3oc4ccccc4c(=O)c3C2c2cccc(O)c2)nc1 (centres undefined)
4. CC(C)(C)NC(=O)Cn1c(=O)oc2ccc(Cl)cc21
5. COc1ccc(OC)c(NC(=O)c2nnn(Cc3ccc(Br)cc3F)c2N)c1

[reply]
1: 81.8; 2: 99.6; 3: 59.1; 4: 96.5; 5: 40.9

----------
- assay.info: MRP1 drug-resistance reversers in H69AR cells – cell-based, doxorubicin co-treatment, pilot screen (AID 601)
- test.parameters: H69AR cells + 2 uM doxorubicin, CellTiter-Glo, 72 h; measured here: viability with 2 uM doxorubicin; at 10 µM; stronger effect = lower value
Each record is given rule met if its reported viability is strictly below 90%. Records at or above 90% are given rule not met.

molecule=Cc1cccc(Cc2c(C)nc3nc(SCC(=O)NCc4ccco4)nn3c2C)c1 class_label="rule met"
molecule=COc1ccc(NC(=O)CN(c2cc(C)cc(C)c2)S(=O)(=O)c2c(C)noc2C)cc1OC class_label="rule met"

[ask] is_below(viability, 90%) for c1ccc(Cn2nnc3c(N4CCCCCC4)ncnc32)cc1 ?
[reply] rule met

[ask] Confirm or reject: viability of COc1cccc(-c2nc3n(n2)C(c2cccs2)C(C(=O)Nc2cccnc2)=C(C)N3)c1 (centres undefined) lies strictly below 90%
[reply] rule not met

[ask] Could you please tell me whether viability recorded for C=C(C)Cn1c(-c2ccccc2)nc2ccccc21 is less than 90%?
[reply] rule not met

[ask] Criterion: viability strictly below 90%. Is it met by COc1ccc(S(=O)(=O)Cc2ccc(C(=O)NCCc3ccc(S(N)(=O)=O)cc3)o2)cc1 ?
[reply] rule met

[ask] Say whether its viability is strictly beneath 90%. Entry: Cc1ccccc1-c1nc(CN2CCC(C(=O)N3CCC(C(N)=O)CC3)CC2)c(C)o1
[reply] rule met

----------
- target.system: Receptor tyrosine-protein kinase erbB-2 (Homo sapiens) (UniProt P04626)
- Sequence (P04626 whole entry, looked up): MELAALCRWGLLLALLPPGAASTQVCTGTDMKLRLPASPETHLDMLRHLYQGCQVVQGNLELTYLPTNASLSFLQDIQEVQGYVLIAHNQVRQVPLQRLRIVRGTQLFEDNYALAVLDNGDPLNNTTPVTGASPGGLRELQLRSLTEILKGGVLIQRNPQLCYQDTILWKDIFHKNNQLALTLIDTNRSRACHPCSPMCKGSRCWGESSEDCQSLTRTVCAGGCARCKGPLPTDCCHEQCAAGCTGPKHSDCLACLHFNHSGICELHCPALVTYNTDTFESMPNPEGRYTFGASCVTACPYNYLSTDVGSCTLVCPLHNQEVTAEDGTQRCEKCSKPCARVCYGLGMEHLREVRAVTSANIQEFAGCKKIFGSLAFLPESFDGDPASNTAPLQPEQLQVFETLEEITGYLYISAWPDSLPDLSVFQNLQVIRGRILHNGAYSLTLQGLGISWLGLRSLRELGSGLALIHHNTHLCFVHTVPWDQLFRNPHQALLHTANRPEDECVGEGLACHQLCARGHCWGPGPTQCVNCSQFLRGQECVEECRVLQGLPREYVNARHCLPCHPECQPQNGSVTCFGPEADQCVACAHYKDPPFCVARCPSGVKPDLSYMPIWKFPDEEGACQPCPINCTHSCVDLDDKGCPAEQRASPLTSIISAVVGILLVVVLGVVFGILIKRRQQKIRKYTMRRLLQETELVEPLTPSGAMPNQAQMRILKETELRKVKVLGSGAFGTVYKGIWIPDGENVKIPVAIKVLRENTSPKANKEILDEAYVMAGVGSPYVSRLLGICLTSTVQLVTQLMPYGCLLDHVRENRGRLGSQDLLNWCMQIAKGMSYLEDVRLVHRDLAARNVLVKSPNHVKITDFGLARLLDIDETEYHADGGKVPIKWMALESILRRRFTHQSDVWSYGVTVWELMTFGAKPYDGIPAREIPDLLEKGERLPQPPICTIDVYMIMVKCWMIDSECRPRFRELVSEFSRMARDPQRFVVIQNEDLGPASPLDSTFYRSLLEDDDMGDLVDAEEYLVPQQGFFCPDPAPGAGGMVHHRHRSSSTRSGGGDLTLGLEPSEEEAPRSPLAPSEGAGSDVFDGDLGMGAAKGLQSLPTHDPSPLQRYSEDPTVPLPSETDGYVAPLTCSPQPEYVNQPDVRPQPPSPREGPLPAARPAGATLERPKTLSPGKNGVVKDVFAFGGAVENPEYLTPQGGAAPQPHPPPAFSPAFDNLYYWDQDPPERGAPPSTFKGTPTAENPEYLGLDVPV
- assay.info: Her2 expression decrease, cell viability multiplex – SKBR3 breast tumor cells, AlphaScreen, ATP viability, primary screen (AID 461);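 also: lower value means less Her2 protein in the cells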
- test.parameters: 18-24 h, at 10 µM, stronger effect = lower value
Kindly state Her2 level for each of the entries shown.
Answers are plain numbers, in %.

molecule="CC(O)CN1C(=O)C(CC(=O)Nc2ccc(Cl)cc2)SC1=Nc1ccccc1 (stereo not drawn)" target_system="Receptor tyrosine-protein kinase erbB-2 (Homo sapiens) (UniProt P04626)" observed=101

For every item in the list below, what is its measured Her2 level?
1. Cc1ccc(C)c(NC(=O)CSc2nnc(-c3ccccc3)o2)c1
2. Cc1noc(/C=C/N(C)C)c1S(=O)(=O)N1CCCC(C(=O)NC2CCCCC2)C1 (stereo not drawn)
3. COc1ccc(N2CCN(Cc3nc4c(c(=O)n(C)c(=O)n4C)n3Cc3ccccc3C)CC2)cc1

[reply]
1: 104; 2: 99.5; 3: 81

Working through the 2 molecules below one at a time, give Her2 level for each.
1. CC(=O)c1ccc(OCC(O)CN2CCN(Cc3ccc4c(c3)OCO4)CC2)cc1 (stereo not drawn)
2. COc1ccc(CNC(=O)c2ccc(CN3CCOCC3)cc2)cc1

[reply]
[102, 93.5]

For every listed record, write down its Her2 level.
1. O=C(Nc1nc(-c2ccccn2)cs1)C1CC1
2. COCCN(CCOC)Cc1c(C)[nH]c2ccccc2c1=O
3. CC1(C)CC(=O)C(C=NCCO)=C(O)C1
4. Cc1ccccc1-c1nc(CN2CCC(C(=O)NC3CCN(Cc4ccccc4)CC3)CC2)c(C)o1

[reply]
1: 97.5; 2: 98; 3: 97.5; 4: 77.5

----------
Can you tell me inhibition for the items I'm about to list?
- assay.info: RAM pathway blockade in budding yeast – dse1pr::URA3 reporter, 5-FOA selection, pilot screen (AID 869);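 also: 0% = DMSO wells with no growth and 100% = 10 µM 1-NA-PP1 with full growth; RAM network block rescues cells from 5-FOA so hits raise OD615 growth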
- test.parameters: S. cerevisiae dse1pr::URA3 5-FOA growth, OD615, 2 d; at 10 µM; stronger effect = higher value; strain carries analog-sensitive mutant Cbk1 kinase
Answers are plain numbers, in %.

compound=COc1ccc(S(=O)(=O)Cc2ccc(C(=O)NC3CC3)o2)cc1 observation_type=inhibition observed=0.85
compound=O=S(=O)(NC1CCCCC1)c1ccc(Br)cc1 observation_type=inhibition observed=0.065

Hi team, please reply with inhibition for each item in this list.
1. Nc1cc(N)cc(-c2nc3ccccc3o2)c1
2. COc1c(Cl)cc(-c2noc(C)c2C(=O)NC(C)C)cc1Cl
3. O=C(/C=C/N1CCOCC1)c1ccc(-c2ccccc2)cc1
4. CCOC(=O)C1CCN(c2c(NC3CCCc4ccccc43)c(=O)c2=O)CC1 (stereo unspecified)
5. COC(=O)CCCCC(=O)C1C(=O)CC(C)(C)C(C(=O)OC)C1=O (stereo unspecified)
6. COc1ccccc1CNC(=O)C1CCCN(S(=O)(=O)c2cccc3cccnc23)C1 (stereo unspecified)

[reply]
2.14
1.33
-0.475
-0.155
1.31
3.08

----------
- assay.info: S. cerevisiae growth inhibition in restrictive medium, OD615, pilot screen, restrictive growth control, yeast lifespan reduction project (AID 706);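 also: modified DeaD lifespan yeast strain shifted to restrictive glucose medium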
- test.parameters: OD615, 48 h, at 10 µM, stronger effect = higher value
observation.type: growth inhibition (%)
Numbers only, in %.

compound=COCc1cc(C)nc(N2CCOCC2)c1C#N observed=3.52
compound="Cc1ccc(N(C(=O)C2CCC(=O)N2)C2(C(=O)NC3CCCCC3)CCCCC2)cc1 (stereo not drawn)" observed=-6.46
compound=O=C(c1ccco1)c1nnn(Cc2ccccc2)c1-c1ccccc1 observed=-8.41

Quick request: growth inhibition for each listed item, please.
1. Cn1c(Cn2c(=O)sc3ccccc32)nnc1SCC(=O)N1CCCC1
2. Cn1c(C(=O)NCCc2ccsc2)cc2c(=O)n(C)c3ccccc3c21
3. N#Cc1nc(-c2ccc(Cl)cc2)oc1NCCc1ccccn1
4. O=C(CSc1nc2c(c(=O)n1-c1ccc(F)cc1)SCC2)NCC1CCCO1 (stereo not drawn)
5. COc1ccc(CCNC(=O)C2(C)CCC(=O)N2Cc2ccc3c(c2)OCO3)cc1OC (stereo not drawn)
6. COc1ccccc1C(=O)NC(C)c1nc2ccccc2[nH]1 (stereo not drawn)
7. Cc1ccnc(SCCn2c(N3CCC(C)CC3)nc3c2c(=O)[nH]c(=O)n3C)n1

[reply]
1. -4.62
2. -8.68
3. 0.83
4. -16.6
5. -25.8
6. -5.35
7. -6.83

Quick request: growth inhibition for each listed item, please.
1. Cc1cccc(-c2nc(CS(=O)CC(=O)N3CCN(C)CC3)c(C)o2)c1 (stereo not drawn)
2. CC(=O)C1=C(N2CCCCC2)CCC1=O
3. COc1ccccc1CNC(=O)CCn1c(=O)[nH]c2ccsc2c1=O
4. CCOc1cc(C2C3=C(CCCC3=O)N(C)C3=C2C(=O)CCC3)cc(Cl)c1O
5. COc1ccccc1C(=O)OCn1nnc2ccccc2c1=O
6. COc1ccccc1OCc1nc(C#N)c(N2CC(C)CC(C)C2)o1 (stereo not drawn)
7. CC(=O)c1sc(NC(=O)c2ccccc2F)nc1C
8. Cc1cc(NS(=O)(=O)c2ccc(NC(=O)COc3ccccc3C(C)C)cc2)no1

[reply]
[-8.82, 4.54, -14.4, -16.7, -10.4, -24.8, -3.2, -18.1]

State the recorded growth inhibition for every item in the following list.
1. COC(=O)c1cccc(NC(=O)C2COc3ccccc3O2)c1C (stereo not drawn)
2. Cc1onc(-c2c(Cl)cccc2Cl)c1C(=O)NCC1CCCO1 (stereo not drawn)
3. CCOc1ccc2nc(NC(=O)c3ccoc3C)sc2c1

[reply]
[-21.5, -5.78, -12.2]

Batch request: growth inhibition for each of the following compounds.
1. CCOc1ccc(N(CC(=O)Nc2ccc(C)c(C)c2)S(=O)(=O)c2c(C)noc2C)cc1
2. C=C(C)Cn1c(-c2ccccc2)nc2ccccc21

[reply]
1: -5.67; 2: -9.65
